Reference source: patent US20240415819A1

Tested on: β5 subunit of the human constitutive proteasome (CPS) (Homo sapiens, UniProt P28074)
Construct: purchased Boston Biochem E-360
Experimental protocol: β5 inhibition assay, human constitutive proteasome (Suc-LLVY-AMC)
Assay type: biochemical
Condition summary: IC50 class, Suc-LLVY-AMC substrate
pIC50: −log10 of the molar value.
pIC50 values for the molecules below.

Some molecules with known pIC50 results, for comparison:
>>> df
                                   molecule                                 tested_on  reported_measurement
0  Cc1ccc2cc1CNC(=O)[C@H](CCc1ccccc1)NC(=O)[C@@H](NC(=O)CC(C)(C)C)CC(=O)N1CCCC(CCO2)C1 (stereo partly drawn)  β5 subunit of the human constitutive proteasome (CPS) (Homo sapiens, UniProt P28074)                > 7.00
1  Cc1ccc2cc1CNC(=O)[C@H](CCc1ccccc1)NC(=O)[C@@H](NCC(C)(C)CO)CC(=O)N1CCCC(CCO2)C1 (stereo partly drawn)  β5 subunit of the human constitutive proteasome (CPS) (Homo sapiens, UniProt P28074)                > 7.00
2  CO[C@@H](C(=O)N[C@H]1CC(=O)N2CCCC(CCOc3ccc(C)c(c3)CNC(=O)[C@H](CCc3ccccc3)NC1=O)C2)c1ccccc1 (stereo partly drawn)  β5 subunit of the human constitutive proteasome (CPS) (Homo sapiens, UniProt P28074)                > 7.00
3  CC(=O)N[C@H]1CCCC(=O)N2CCCC(CCOc3ccc(C)c(c3)CNC(=O)[C@H](CCc3ccccc3)NC1=O)C2 (stereo partly drawn)  β5 subunit of the human constitutive proteasome (CPS) (Homo sapiens, UniProt P28074)                > 7.00
4  Cc1ccc2cc1CNC(=O)[C@H](CCc1ccccc1)NC(=O)[C@@H](NC(=O)CCOCCC1CC1)CC(=O)N1CCCC(CCO2)C1 (stereo partly drawn)  β5 subunit of the human constitutive proteasome (CPS) (Homo sapiens, UniProt P28074)                > 7.00

Read the next record carefully.
# pIC50 (molecule: Cc1ccc2cc1CNC(=O)[C@H](CCc1ccccc1)NC(=O)[C@@H](NC(=O)CCN1CCC1)CC(=O)N1CCCC(CCO2)C1 (stereo partly drawn) ) is > 7.00
